Species on record: Rattus norvegicus
MEASUREMENT_DESCRIPTION: Peroral dose required to produce a 50 mmHg drop in systolic blood pressure (SBP) in the spontaneously hypertensive rats
Type: functional
CONDITION_PARAMETERS: Artery, po
Please note: ED50 exactly at 0.2 mg/kg is N. Only values below 0.2 mg/kg get Y.

Data request: ED50 strictly < 0.2 mg/kg for this compound? "COc1ccccc1N1CCN(CCn2c(=O)[nH]c3sccc3c2=O)CC1"
Data returned: N

Data request: ED50 strictly < 0.2 mg/kg for this compound? "COc1ccccc1N1CCN(CCn2c(=O)[nH]c3cscc3c2=O)CC1.Cl"
Data returned: N

Data request: ED50 strictly < 0.2 mg/kg for this compound? COc1cc2nc(N3CCN(C(=O)c4ccco4)CC3)nc(N)c2cc1OC [PRAZOSIN]
Data returned: N

Data request: ED50 strictly < 0.2 mg/kg for this compound? "COc1ccccc1N1CCN(CCn2c(=O)[nH]c3ccccc3c2=O)CC1"
Data returned: N

Data request: ED50 strictly < 0.2 mg/kg for this compound? "COc1ccccc1N1CCN(CCn2c(=O)[nH]c3ccsc3c2=O)CC1"
Data returned: Y

Where these numbers come from: ChEMBL document CHEMBL1124204
